- target_desc: N2 influenza virus neuraminidase (Influenza A virus, UniProt P06820)
- Sequence (P06820 whole entry, looked up): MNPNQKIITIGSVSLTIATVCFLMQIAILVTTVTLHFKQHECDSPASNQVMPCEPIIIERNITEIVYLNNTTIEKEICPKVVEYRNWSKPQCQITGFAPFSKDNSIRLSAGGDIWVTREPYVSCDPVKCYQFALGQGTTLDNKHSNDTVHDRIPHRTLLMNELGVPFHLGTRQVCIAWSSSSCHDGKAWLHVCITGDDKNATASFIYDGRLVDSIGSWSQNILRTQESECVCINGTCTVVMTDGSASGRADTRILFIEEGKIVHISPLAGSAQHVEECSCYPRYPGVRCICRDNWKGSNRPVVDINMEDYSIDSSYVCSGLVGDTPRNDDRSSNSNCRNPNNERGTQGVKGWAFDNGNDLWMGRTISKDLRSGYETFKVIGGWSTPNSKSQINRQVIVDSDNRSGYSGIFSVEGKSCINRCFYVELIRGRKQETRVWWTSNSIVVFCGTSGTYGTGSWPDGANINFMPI
- protocol_text: biochemical
- particulars: N2; 37° C.; read-out: Ki, inhibition of N2 neuraminidase
The class of a record is decided solely by its measured Ki; consult low end (below 2 µM), middle (2 µM to below 10 µM), high end (10 µM or more)

Example results:
COC(=O)C1=C[C@H](O)[C@@H](NC(C)=O)[C@H]([C@H](O)[C@H](O)CNC(C)=O)O1	high end
CC(=O)N[C@H]1[C@H]([C@H](O)[C@H](O)CO)OC(C(=O)O)=C[C@@H]1NCCO	low end
CC(=O)N[C@H]1[C@H]([C@H](O)[C@H](O)CC#N)OC(C(=O)O)=C[C@@H]1O	middle
C=CCN[C@H]1C=C(C(=O)O)O[C@@H]([C@H](O)[C@H](O)CO)[C@@H]1NC(C)=O	middle
N[C@H]1[C@H]([C@H](O)[C@H](O)CO)OC(C(=O)O)=C[C@@H]1N	low end
CN[C@H]1C=C(C(=O)O)O[C@@H]([C@H](O)[C@H](O)CO)[C@@H]1NC(C)=O	low end
CC(=O)N[C@H]1[C@H]([C@H](O)[C@H](O)CO)OC(C(=O)O)=C[C@H]1N=[N+]=[N-]	high end
CC(=O)N[C@H]1[C@H]([C@H](O)[C@H](O)CO)OC(C(=O)O)=C[C@@H]1N(C)C	low end
CC(=O)N[C@H]1[C@H]([C@H](O)[C@H](O)CO)OC(C(=O)O)=C[C@@H]1N	low end
O=C(O)C1=C[C@H](O)[C@@H](O)[C@H]([C@H](O)[C@H](O)CO)O1	high end

Problem: Sort into band: `CC(=O)NC[C@@H](O)[C@@H](O)[C@@H]1OC(C(=O)O)=C[C@H](O)[C@H]1NC(C)=O`
Result: high end

Problem: # repeat for `COC(=O)CN[C@H]1C=C(C(=O)OC)O[C@@H]([C@H](O)[C@H](O)CO)[C@@H]1NC(C)=O`
Result: middle

Problem: # repeat for `COC(=O)C1=C[C@H]2OC(C)=N[C@H]2[C@H]([C@H](OC(C)=O)[C@@H](COC(C)=O)OC(C)=O)O1`
Result: high end

----------
- target_desc: N2 influenza virus neuraminidase (Influenza A virus)
- protocol_text: biochemical
- particulars: read-out: Ki, inhibition of N2 virus neuraminidase
measured_attribute: Ki (nM)
Give bare numbers, in nM.

Problem: For N2 influenza virus neuraminidase (Influenza A virus), provide Ki of `CC(=O)N[C@H]1[C@H]([C@H](O)[C@H](O)CO)OC(C(=O)O)=C[C@@H]1N` please.
Result: 10

----------
- target_desc: sheep neuraminidase
- protocol_text: In vitro inhibition of sheep neuraminidase
- particulars: pH 4.5
pKi: −log10 of the molar value.
measured_attribute: pKi

Problem: What value of measured pKi is listed for CC(=O)N[C@H]1[C@H]([C@H](O)[C@H](O)CO)OC(C(=O)O)=C[C@@H]1N=C(N)N [Compound 7] ?
Result: < 2.00

----------
- target_desc: N9 neuraminidase (Influenza A virus, UniProt P03472)
- Sequence (P03472 whole entry, looked up): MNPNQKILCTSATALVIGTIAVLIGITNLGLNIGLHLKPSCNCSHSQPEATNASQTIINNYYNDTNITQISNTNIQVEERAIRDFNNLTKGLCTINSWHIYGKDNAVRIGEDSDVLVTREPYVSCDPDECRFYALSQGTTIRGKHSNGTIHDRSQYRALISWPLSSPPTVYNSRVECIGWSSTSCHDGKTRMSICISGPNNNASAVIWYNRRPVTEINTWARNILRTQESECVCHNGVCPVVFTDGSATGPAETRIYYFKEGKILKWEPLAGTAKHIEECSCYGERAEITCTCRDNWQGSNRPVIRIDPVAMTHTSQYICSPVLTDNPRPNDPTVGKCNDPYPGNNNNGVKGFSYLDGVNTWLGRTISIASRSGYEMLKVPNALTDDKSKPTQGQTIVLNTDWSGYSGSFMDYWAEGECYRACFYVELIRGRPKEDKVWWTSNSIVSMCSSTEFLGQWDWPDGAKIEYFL
Kindly supply the reported Ki values for the records listed here.

C=CCN[C@H]1C=C(C(=O)O)O[C@@H]([C@H](O)[C@H](O)CO)[C@@H]1NC(C)=O	2500 nM
CC(=O)N[C@H]1[C@H]([C@H](O)[C@H](O)CO)OC(C(=O)O)=C[C@H]1N	100 nM

For the 2 compounds below, give their Ki values.
1. CC(=O)N[C@H]1[C@H]([C@H](O)[C@H](O)CO)OC(C(=O)O)=C[C@@H]1N
2. CC(=O)N[C@H]1[C@H]([C@H](O)[C@H](O)CO)OC(C(=O)O)=C[C@@H]1NCCO

Result:
1. 190 nM
2. 1600 nM

----------
- target_desc: N2 influenza virus neuraminidase (Influenza A virus)
- protocol_text: biochemical
- particulars: N2; 37° C.; read-out: Ki, inhibition of N2 neuraminidase
measured_attribute: Ki (µM)
Give bare numbers, in µM.

CC(=O)N[C@H]1[C@H]([C@H](O)[C@H](O)CO)OC(C(=O)O)=C[C@H]1N [Compound 14]	0.1
CC(=O)N[C@H]1[C@H]([C@H](O)[C@H](O)CO)OC(C(=O)O)=C[C@@H]1N=[N+]=[N-] [Compound 4]	2
C=CCN(CC=C)[C@H]1C=C(C(=O)O)O[C@@H]([C@H](O)[C@H](O)CO)[C@@H]1NC(C)=O [Compound 9]	4

Problem: What value of measured Ki is listed for CC(=O)N[C@H]1[C@H]([C@H](O)[C@H](O)CO)O[C@@H](C(=O)O)C[C@@H]1O [2-deoxy-N acetyl-α-D-neuraminic acid, 2-deoxy-N-acetyl-α-D-neuraminic acid, reference compound] ?
Result: 300
